- System: anaphylactic asthma in guinea-pigs
- assay-info: Antagonism to anaphylactic asthma in guinea-pigs (inhibitory effect from number of surviving animals)
- Type: in vivo, guinea-pig (male Hartley strain)
- condition-info: Dose 10 mg/kg, oral, 30 minutes before egg albumin challenge; survival more than 2 hours after antigen spray; *Dose group: 5 guineapigs (compound D)
Recorded Inhibitory Effect values for a group of molecules are listed next.
Please give a number only; it is taken to be in %.

Below: 3 molecules and their reported Inhibitory Effect.
>  <molecule>
CC(=O)Nc1nc(CCCN2CCN(C(c3ccccc3)c3ccccc3)CC2)cs1 [Compound D]

>  <unit-text>
%

>  <val>
100

$$$$
>  <molecule>
CCCS(=O)(=O)Nc1nc(CN2CCN(C(c3ccccc3)c3ccccc3)CC2)cs1 [Compound C]

>  <unit-text>
%

>  <val>
100

$$$$
>  <molecule>
CS(=O)(=O)Nc1nc(CN2CCN(C(c3ccccc3)c3ccccc3)CC2)cs1 [Compound A]

>  <unit-text>
%

>  <val>
100

$$$$

// switching to the query molecule
Form: molecule = CCS(=O)(=O)Nc1nc(CN2CCN(C(c3ccccc3)c3ccccc3)CC2)cs1 [Compound B] ; Inhibitory Effect = 100
